Source listed as ChEMBL document CHEMBL5532653.

measurement-protocol: Antiproliferative activity against human WM983B cells assessed as reduction in cell growth incubated for 72 hrs by MTT assay
Assay type: functional, cell-based

compound: Nc1ccccc1NC(=O)c1ccc(CCCC(=O)Nc2ccc(C3CC3N)cc2)cc1 (stereo unspecified)
IC50, µM: 0.2

----------
assayed-target: Histone deacetylase 1 (Homo sapiens, UniProt Q13547)
Sequence (Q13547 whole entry): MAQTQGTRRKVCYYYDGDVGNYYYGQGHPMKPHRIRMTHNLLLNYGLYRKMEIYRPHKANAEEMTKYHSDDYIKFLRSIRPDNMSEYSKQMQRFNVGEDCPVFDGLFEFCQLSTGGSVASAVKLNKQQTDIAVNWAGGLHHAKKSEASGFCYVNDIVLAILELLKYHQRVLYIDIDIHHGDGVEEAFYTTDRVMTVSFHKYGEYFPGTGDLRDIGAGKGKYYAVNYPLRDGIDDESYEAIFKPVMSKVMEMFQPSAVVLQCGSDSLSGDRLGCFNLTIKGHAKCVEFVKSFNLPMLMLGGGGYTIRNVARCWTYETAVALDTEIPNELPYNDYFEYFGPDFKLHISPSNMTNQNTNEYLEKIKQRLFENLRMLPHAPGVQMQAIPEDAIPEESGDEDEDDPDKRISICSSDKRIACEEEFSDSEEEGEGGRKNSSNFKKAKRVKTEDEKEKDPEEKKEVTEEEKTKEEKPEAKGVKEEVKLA
measurement-protocol: Inhibition of HDAC1 (unknown origin) using Boc-Lys(Ac)-AMC or Boc-Lys(Tfa)-AMC as substrate incubated for 1 hr by fluorescence based analysis
pIC50: −log10 of the molar value.

molecular-string: Nc1ncnc2c1ncn2Cc1ccc(-c2cn(CCCCCCC(=O)NO)nn2)cc1
pIC50: 8.62
